Please go through the items and note down their Kd.
Target: FimH-CRD (Escherichia coli, UniProt P08191)
Construct: The first 177 amino acids of the FimH protein are expressed as a fusion protein; thrombin tag (printed as 'fusion protein with thrombin') (cleaved yes); made in house; host or cells: bacteria (pET21b plasmid)
Sequence (P08191 22-177): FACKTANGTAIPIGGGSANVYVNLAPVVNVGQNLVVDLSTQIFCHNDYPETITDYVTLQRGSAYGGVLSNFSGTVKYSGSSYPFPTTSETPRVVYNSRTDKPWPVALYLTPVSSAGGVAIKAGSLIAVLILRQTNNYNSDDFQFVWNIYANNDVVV
Assay: Competitive binding assay by fluorescence polarization, assay 1 (compounds prepared by manual dilution)
Parameters: species or system E. coli
Settings: Assay 1 Kd, 5 nM Alexa 647 mannoside probe, 60 nM FimH-CRD, replicate values in one cell

Item: OC[C@H]1O[C@H](c2cccc(OCCCOc3cccc([C@H]4O[C@H](CO)[C@@H](O)[C@H](O)[C@@H]4O)c3)c2)[C@@H](O)[C@@H](O)[C@@H]1O [Compound 44] | Kd: < 5 nM

Lookup result for Cc1cc(/C=C/C[C@H]2O[C@H](CO)[C@@H](O)[C@H](O)[C@@H]2O)ccc1/C=C/C[C@H]1O[C@H](CO)[C@@H](O)[C@H](O)[C@@H]1O [Compound 27] ; measured Kd: < 5 nM

In plain terms, OC[C@H]1O[C@H](C/C=C/c2ccc(/C=C/C[C@H]3O[C@H](CO)[C@@H](O)[C@H](O)[C@@H]3O)c(F)c2)[C@@H](O)[C@@H](O)[C@@H]1O [Compound 28] has a documented Kd of < 5 nM
